What abundance fitness was measured for each of the following?
B1: Retinoic acid receptor beta, residues 85 to 161; numbered along this chain, P10826 (parent)
chain: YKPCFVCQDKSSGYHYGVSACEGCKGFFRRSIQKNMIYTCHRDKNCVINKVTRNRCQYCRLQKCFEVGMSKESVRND

# Variants of: B1
# protocolText: abundance fitness (aPCA) (normalised: wild type 0, dead -1); higher = more abundant; growth selection in yeast, the domain comes from the species named
# particulars: Homo sapiens

QUERY: Could you please provide reported abundance fitness for YKPCFVCQDKSSGYHYGVSACEGCKGFFRRSIQKNMIYTCHRDKNCVIIKVTRNRCQYCRLQKCFEVGMSKESVRND [N49I] ? Thanks!
RESULT: -0.239

QUERY: Could you please provide reported abundance fitness for YKPCFVCQDMSSGYHYGVSACEGCKGFFRRSIQKNMIYTCHRDKNCVINKVTRNRCQYCRLQKCFEVGMSKESVRND [K10M] ? Thanks!
RESULT: 0.078

QUERY: Could you please provide reported abundance fitness for YKPCFVCQDKSSGYHYGVSACEGCKGFFRRSIMKNMIYTCHRDKNCVINKVTRNRCQYCRLQKCFEVGMSKESVRND [Q33M] ? Thanks!
RESULT: 0.136

QUERY: Could you please provide reported abundance fitness for YQPCFVCQDKSSGYHYGVSACEGCKGFFRRSIQKNMIYTCHRDKNCVINKVTRNRCQYCRLQKCFEVGMSKESVRND [K2Q] ? Thanks!
RESULT: 0.052

QUERY: Could you please provide reported abundance fitness for YKPCFVCQDKSSGYHYGVSACEGCKGFFRRSIQKNMIYTCHRDKSCVINKVTRNRCQYCRLQKCFEVGMSKESVRND [N45S] ? Thanks!
RESULT: -0.057

QUERY: Could you please provide reported abundance fitness for YKPCFVCQDKSSFYHYGVSACEGCKGFFRRSIQKNMIYTCHRDKNCVINKVTRNRCQYCRLQKCFEVGMSKESVRND [G13F] ? Thanks!
RESULT: -0.349

QUERY: Could you please provide reported abundance fitness for YKPCFVCQDKSSGYHYGVSACEGCKGFFRRSIQKNMIYTCHRDKNCVINKVTRARCQYCRLQKCFEVGMSKESVRND [N54A] ? Thanks!
RESULT: 0.074

QUERY: Could you please provide reported abundance fitness for YKPCFVCQDKSSGYHYMVSACEGCKGFFRRSIQKNMIYTCHRDKNCVINKVTRNRCQYCRLQKCFEVGMSKESVRND [G17M] ? Thanks!
RESULT: -0.254

QUERY: Could you please provide reported abundance fitness for YKPCFVCQDKSSGYHYGVSACEGCKGFFRRSIQKNMIYTCHRDKNCVINKVTRNKCQYCRLQKCFEVGMSKESVRND [R55K] ? Thanks!
RESULT: 0.198

QUERY: Could you please provide reported abundance fitness for YKPCFVCQDKSSGYHYGASACEGCKGFFRRSIQKNMIYTCHRDKNCVINKVTRNRCQYCRLQKCFEVGMSKESVRND [V18A] ? Thanks!
RESULT: 0.088

QUERY: Could you please provide reported abundance fitness for YKPCFVCQDKSSGYHYGPSACEGCKGFFRRSIQKNMIYTCHRDKNCVINKVTRNRCQYCRLQKCFEVGMSKESVRND [V18P] ? Thanks!
RESULT: -0.365

QUERY: Could you please provide reported abundance fitness for YKPCFVCQDKSSGYHYGVSACEGCKGFFRRSIQKNMIYTCTRDKNCVINKVTRNRCQYCRLQKCFEVGMSKESVRND [H41T] ? Thanks!
RESULT: 0.129
